# credit: the RNAGym collection of RNA variant scans (doi:10.7554/elife.80360)

Assign self-cleavage to each entry below.
B1: CPEB3 Ribozyme (parent)
chain: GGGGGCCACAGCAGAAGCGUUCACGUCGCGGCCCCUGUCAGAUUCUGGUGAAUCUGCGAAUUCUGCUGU

variants of: B1; test: self-cleavage, relative activity (ratio to wild type); higher = more cleavage; co-transcriptional
Just the number, please, no unit attached.

Query string: Answer with the recorded self-cleavage for the variant listed here: C29G A51U
Result string: 0.439

Query string: Answer with the recorded self-cleavage for the variant listed here: `U46G`
Result string: 0.994

Query string: Answer with the recorded self-cleavage for the variant listed here: G14A U53G
Result string: 0.344

Query string: Answer with the recorded self-cleavage for the variant listed here: G37U U44C
Result string: 0.188

Query string: Answer with the recorded self-cleavage for the variant listed here: A16G U44G
Result string: 0.84

Query string: Answer with the recorded self-cleavage for the variant listed here: A15U C24A
Result string: 0.299

Query string: Answer with the recorded self-cleavage for the variant listed here: C12A G28A
Result string: 0.13

Query string: Answer with the recorded self-cleavage for the variant listed here: G4A A16C
Result string: 0.0992

Query string: Answer with the recorded self-cleavage for the variant listed here: C29G C54G
Result string: 0.246

Query string: Answer with the recorded self-cleavage for the variant listed here: G14A G41C
Result string: 0.179
